Target of assay: hTAAR1 (Homo sapiens, UniProt Q96RJ0)
Construct: expressed in transfected cells; host or cells: Expi293F
Sequence (Q96RJ0 whole entry): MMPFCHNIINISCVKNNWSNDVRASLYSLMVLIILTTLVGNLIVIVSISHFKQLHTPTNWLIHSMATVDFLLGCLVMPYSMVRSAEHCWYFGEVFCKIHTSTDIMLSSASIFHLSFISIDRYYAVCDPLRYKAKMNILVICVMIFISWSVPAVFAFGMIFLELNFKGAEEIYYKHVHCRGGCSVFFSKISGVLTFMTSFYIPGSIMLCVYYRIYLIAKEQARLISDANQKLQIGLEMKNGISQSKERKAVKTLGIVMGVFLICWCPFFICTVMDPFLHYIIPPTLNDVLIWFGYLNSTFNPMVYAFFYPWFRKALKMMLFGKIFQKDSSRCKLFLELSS
Test protocol: G protein (mini-Gs) recruitment luminescence complementation assay, agonist mode
Assay type: cell-based
Condition description: relative to the effect of the reference agonist β-PEA; read-out: Emax
Readout: Emax (%)

>>> value_reported("NC[C@H]1Cc2cc(Br)ccc2O1 [Compound 17]")
67.8
>>> value_reported("C[C@@H](N)c1cc2ccccc2o1 [Compound 16]")
61.9
>>> value_reported("COc1cccc(C2=CCNC2)c1 [Compound 24]")
81.4
>>> value_reported("CCNCc1cncc2ccccc12 [Compound 59]")
78.8
>>> value_reported("Cc1ccc(-c2cccc3c2CNCC3)o1 [Compound 18]")
68.7
>>> value_reported("c1ccc2cc(CNC3CC3)ccc2c1 [Compound 56]")
63
>>> value_reported("NCc1noc2ccc(F)cc12 [Compound 13]")
51.8
>>> value_reported("CCNCc1cccc2ccoc12 [Compound 60]")
79.9
>>> value_reported("NCc1nsc2ccccc12 [Compound 23]")
79.2
>>> value_reported("C[C@H](N)c1csc2ccccc12 [Compound 15]")
57.5
>>> value_reported("CCNCc1cccc2c1OCO2 [Compound 57]")
73.2
>>> value_reported("c1ccc2c(c1)C[C@H]2CNCc1c[nH]cn1 [Compound 61]")
80.3
>>> value_reported("N[C@H]1COc2cccc(Br)c2C1 [Compound 20]")
74.5
>>> value_reported("NC[C@H]1OCCc2sc(F)cc21 [Compound 26]")
95.5
>>> value_reported("Brc1csc2c1CNCC2 [Compound 29]")
106
>>> value_reported("C[C@H](N)c1coc2ccccc12 [Compound 14]")
54.3
>>> value_reported("c1csc([C@H]2CCCNC2)n1 [Compound 25]")
95.3
>>> value_reported("CNCc1cccc2cccnc12 [Compound 22]")
78.5
>>> value_reported("Cc1ccc2c(c1Br)CNC2 [Compound 28]")
103
>>> value_reported("CN[C@H]1CCc2ccccc2C1 [Compound 19]")
74.5
>>> value_reported("Cc1cc2c(CCN)csc2s1 [Compound 21]")
75.2
>>> value_reported("C1=C(c2ccco2)CNCC1 [Compound 30]")
112
>>> value_reported("Brc1cccc2c1CNCC2 [Compound 62]")
107
>>> value_reported("Cc1ccc([C@@H]2CNCCO2)o1 [Compound 27]")
98.7

Source of measurements: paper PMC11305387
